The entries below come with measured Relative Fluorescence Units (RFU) values attached.
# system: T1, IL-8 (CXCL8) (UniProt P10145 28-99, limits assumed)
# T1 construct: also called IL-8(72aa); IL-8(77aa)
# T1 sequence (looked up): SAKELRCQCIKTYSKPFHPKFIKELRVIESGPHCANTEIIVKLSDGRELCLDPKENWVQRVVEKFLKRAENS
# protocol-notes: micro-array, phage-presented peptide on printed CK

[
  {
    "binder": "WVFGHGMCK [Phage-Presented Peptide 25 (Ph-p25)]",
    "Relative Fluorescence Units (RFU)": "> 15000 RFU"
  },
  {
    "binder": "WVFGVHFCK [Phage-Presented Peptide 8.77 (Ph-p8.77)]",
    "Relative Fluorescence Units (RFU)": "> 15000 RFU"
  },
  {
    "binder": "DYDYGAPC [Phage-Presented Peptide 30 (Ph-p30)]",
    "Relative Fluorescence Units (RFU)": "> 15000 RFU"
  },
  {
    "binder": "DYDYG [Phage-Presented Peptide 31 (Ph-p31)]",
    "Relative Fluorescence Units (RFU)": "> 15000 RFU"
  },
  {
    "binder": "DYDY [Phage-Presented Peptide 32 (Ph-p32)]",
    "Relative Fluorescence Units (RFU)": "> 10000 RFU"
  }
]
